Observation Type: melting point (°C)

Use the examples below as a reference point.
>>> df
                                   molecule  observation_type  reading_unit  experimental_value
0  CCOC(=O)C1=C(C)OC(N)=C(c2nc3ccccc3s2)C1c1ccc(N(C)C)cc1 (stereo unspecified)     melting point            °C                 215
1              CCCN(CCC)CCc1cccc2c1CC(=O)N2     melting point            °C                 246
2  Nc1ccc(Nc2ccc(N)c3c2C(=O)c2ccccc2C3=O)c2c1C(=O)c1ccccc1C2=O     melting point            °C                 275

A: O=C1NN(c2ccccc2)C(=O)C1=Cc1ccc(F)cc1
B: Fc1cc(F)c(Br)c(Br)c1
Exercise: Pick the one with the larger melting point: A vs B Identify your pick by its label.
Key: A
(A: 300 °C, B: 37 °C)
